# merged literature set: pIC50 with Corticotropin-releasing factor receptor 1 (Rattus norvegicus)
pIC50: −log10 of the molar value.
quantity-name: pIC50

These solved cases illustrate the format of a correct answer.
CCCC(CCC)n1c(CC)nc2c1C(=O)N(C)CN2c1ccc(OC)cc1Cl 7.57
COC[C@H](C1CC1)n1cc(Cl)nc(Nc2cc(C)c(OC)nc2C)c1=O 8.82
COc1nc(C)c(Nc2nc(Cl)cn([C@H](COc3ccc(C#N)cn3)C3CC3)c2=O)cc1C 8.11

A. COc1nc(C)c(Nc2nc(Cl)cn([C@H](COC(=O)Nc3ccc(Cl)cc3)C3CC3)c2=O)cc1C
B. COC[C@H](C1CC1)n1nc(C)nc(Nc2c(Cl)cc(OC(F)F)cc2Cl)c1=O
C. CCCc1cc(C)c(Oc2nc(C)cc(OC(CC)CC)c2C)c(C)c1
Sort the 3 compounds by pIC50; largest first, smallest last. Ranked list of labels, please, in the requested order.
A, B, C
(A: 8.80, B: 8.36, C: 8.01)

P. COCC(COC)n1cc(Br)nc(Nc2c(C)cc(OC)cc2C)c1=O
Q. COc1cc(C)c(Nc2nc(C)cn([C@@H](CF)C3CC3)c2=O)cc1C
R. COCCN(CCOC)c1cc(C)nc2c1NC(=O)CN2c1ccc(C(C)C)cc1Cl
Sort entries by pIC50 from minimum to maximum value. Your task in answering is to list the labels in the requested order.
R, P, Q
(R: 7.74, P: 8.11, Q: 9.21)

I. Cc1cc(C#N)cc(C)c1Nc1nc(Cl)cn([C@@H](COCCF)C2CC2)c1=O
II. COC[C@@H](C)n1cc(Cl)nc(Nc2c(C)cc(C)cc2C)c1=O
Which one would you say has the larger pIC50 value: I , or II ? Use the label to indicate which entry you chose.
I

a. COC[C@@H](C)n1cc(Cl)nc(Nc2c(Cl)cc(C(F)(F)F)cc2Cl)c1=O
b. CCCN(CCOC)c1cc(C)nc2c1NCCN2c1cc(OC)c(OC)cc1C
In terms of reported pIC50, does a or b have the smaller number? Provide the label of your selected option as the answer.
b
(b: 7.06, a: 7.96)

a. CCC(CC)Oc1cc(C)nc(Oc2c(C)cc(C(C)(C)O)cc2C)c1C
b. COC[C@@H](C)n1cc(Cl)nc(Nc2cc(C)c(OC)cc2C)c1=O
Between item a and item b , which reported pIC50 is smaller? Please indicate the selected item by its label.
a

P. COc1nc(C)c(Nc2nc(Cl)cn([C@H](COC(=O)Nc3cccnc3)C3CC3)c2=O)cc1C
Q. CCCCN(CC)c1nc(C)nc2c1NC(=O)CN2c1ccc(OC)nc1OC
I'm curious whether P or Q has the smaller pIC50 number. Which is it? # respond with the chosen item's label
Q

P. CCCCN(CC)c1cc(C)nc2c1NC(=O)CN2c1c(Cl)cc(C#N)cc1Cl
Q. CC[C@H](C1CC1)n1cc(Cl)nc(Nc2c(C)cc(C)cc2C)c1=O
For the two items P and Q , which reports the higher pIC50 value? Record your answer as the label of the chosen record.
Q

1. Cc1nc(OC(F)F)ccc1Nc1nc(Cl)cn([C@H](C)C2CC2)c1=O
2. CC[C@H](COC)n1cc(Cl)nc(Nc2cc(C)c(OC)cc2C)c1=O
Identify the entry with the larger pIC50. Options: 1 and 2 Reply briefly: the label of your chosen item.
2
(2: 9.23, 1: 8.92)

* * *

Across several studies, compounds have been characterized by their IC50 on Corticotropin-releasing factor receptor 1 (Rattus norvegicus, UniProt P35353); a selection follows.
quantity-name: IC50 (nM)

CCc1c(OC(CC)CC)cc(C)nc1Oc1c(C)cc(C)cc1C 9.1

a. COc1cc(C)c(Nc2nc(Cl)cn([C@H](C)C3CC3)c2=O)cc1OC
b. C[C@H](C1CC1)n1cc(C#N)nc(Nc2c(Cl)cc(C(F)(F)F)cc2Cl)c1=O
c. CC[C@H](C1CC1)n1cc(Cl)nc(Nc2ccc(Cl)cc2)c1=O
Put the items in order so that reported IC50 rises from first to last. API: response body holds the labels in the requested order.
b, a, c

* * *

measured-on: Corticotropin-releasing factor receptor 1 (Rattus norvegicus)
Sequence (P35353 whole entry): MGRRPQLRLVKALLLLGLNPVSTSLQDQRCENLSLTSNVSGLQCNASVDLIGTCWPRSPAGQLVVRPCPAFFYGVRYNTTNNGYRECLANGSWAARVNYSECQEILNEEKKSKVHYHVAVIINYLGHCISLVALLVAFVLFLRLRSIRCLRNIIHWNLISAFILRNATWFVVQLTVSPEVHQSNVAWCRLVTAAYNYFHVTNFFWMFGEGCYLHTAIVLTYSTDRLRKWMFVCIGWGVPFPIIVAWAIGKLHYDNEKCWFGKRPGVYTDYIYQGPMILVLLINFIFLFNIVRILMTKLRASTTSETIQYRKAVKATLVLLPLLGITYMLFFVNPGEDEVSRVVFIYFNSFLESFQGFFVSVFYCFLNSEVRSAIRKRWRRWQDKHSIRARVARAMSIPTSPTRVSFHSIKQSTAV
Compiled notes: published IC50 values involving Corticotropin-releasing factor receptor 1 (Rattus norvegicus).
quantity-name: IC50 (nM)

compound	measured-on	IC50 (nM)
CCCCN(CC)c1cc(C)nc2c1NC(=O)CN2c1ccc(C(C)C)cc1Br	Corticotropin-releasing factor receptor 1 (Rattus norvegicus)	0.7

A. Cc1cc(Nc2nc(Cl)cn([C@H](COC(=O)Nc3cccnc3)C3CC3)c2=O)c(C)nc1OC(F)F
B. CC[C@H](C1CC1)n1cc(Cl)nc(N(CC)c2c(C)cc(C)cc2C)c1=O
C. COCC(COC)n1cc(Cl)nc(Nc2c(C)cc(C)cc2C)c1=O
D. COc1cc(Cl)c(Nc2nc(Cl)cn([C@H](C)C3CC3)c2=O)c(Cl)c1
E. CCc1nc2c(n1C(CC)C(C)C)C(=O)N(C)CN2c1ccc(C(C)C)cc1Cl (centres undefined)
Rank the 5 compounds: largest IC50 first, smallest last. Lab note: record answer as labels in requested order.
E, C, B, A, D
(E: 555 nM, C: 16 nM, B: 4.6 nM, A: 1.9 nM, D: 1.1 nM)

1. COc1nc(C)c(Nc2nc(Cl)cn([C@H](COC(=O)c3ccncc3)C3CC3)c2=O)cc1C
2. CCC(CC)Nc1cc(C)nc(Oc2c(C)cc(Cl)cc2C)c1C
3. CCc1nc2c(n1C(CC)C(C)C)C(=O)N(C)CN2c1ccc(Cl)cc1Cl (centres undefined)
Hey, quick one: sort these by IC50, low to high? When ranking, write the labels in the order the request describes.
1, 2, 3

I. COC[C@H](C1CC1)n1nc(C)nc(Nc2c(Cl)cc(OC)cc2Cl)c1=O
II. COC[C@H](C1CC1)n1cc(Cl)nc(Nc2c(C)cc(OC(F)F)nc2C)c1=O
Higher IC50 between I and II ? Respond with the label that goes with your answer.
I

1. CCN(CCCS(C)(=O)=O)c1cc(C)nc2c1NC(=O)CN2c1ccc(C(C)C)cc1Br
2. CCC(COC)Oc1cc(C)nc(Oc2c(C)cc(C)cc2C)c1C (centres undefined)
3. C=Cc1cn([C@H](C)C2CC2)c(=O)c(Nc2ccc(OC)nc2C(F)(F)F)n1
Please give the order of these compounds when sorted by IC50, largest value leading. As an answer, provide the labels arranged in the order called for.
3, 1, 2
